Source: patent US8536354B2

target: TmEcR (GAL4-EcR DEF with VP16-RXR partner) (Tenebrio molitor); assay: Two-hybrid gene switch assay, luciferase reporter, TmEcR, mouse NIH3T3 cells; conditions: EC50, FIG. 14A/14B, GAL4-EcR(DEF)
Sequence (O02035 194-491): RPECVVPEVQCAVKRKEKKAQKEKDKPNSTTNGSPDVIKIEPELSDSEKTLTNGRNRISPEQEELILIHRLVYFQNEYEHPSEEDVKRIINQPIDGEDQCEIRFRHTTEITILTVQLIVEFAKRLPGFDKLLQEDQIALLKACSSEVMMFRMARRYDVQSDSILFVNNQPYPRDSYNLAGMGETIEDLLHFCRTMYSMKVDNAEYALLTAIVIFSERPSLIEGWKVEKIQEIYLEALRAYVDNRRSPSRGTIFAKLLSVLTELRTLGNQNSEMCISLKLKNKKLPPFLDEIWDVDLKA
Sequence (P28704 whole entry partner, the tested form may be a part): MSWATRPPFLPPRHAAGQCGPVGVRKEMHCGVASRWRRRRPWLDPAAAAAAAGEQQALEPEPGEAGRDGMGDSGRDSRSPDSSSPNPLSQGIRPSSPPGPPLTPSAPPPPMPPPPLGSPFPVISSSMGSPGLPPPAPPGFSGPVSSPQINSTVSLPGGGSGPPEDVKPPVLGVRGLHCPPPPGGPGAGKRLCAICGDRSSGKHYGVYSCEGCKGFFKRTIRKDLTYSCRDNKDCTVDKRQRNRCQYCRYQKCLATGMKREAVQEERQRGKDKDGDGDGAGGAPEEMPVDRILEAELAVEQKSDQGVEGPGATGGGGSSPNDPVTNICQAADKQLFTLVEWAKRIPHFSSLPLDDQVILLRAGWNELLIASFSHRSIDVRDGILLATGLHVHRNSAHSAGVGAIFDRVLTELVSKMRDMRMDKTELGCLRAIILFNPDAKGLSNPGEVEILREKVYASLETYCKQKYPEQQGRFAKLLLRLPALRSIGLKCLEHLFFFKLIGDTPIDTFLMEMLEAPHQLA
Assign EC50 to each entry below.

CC(C)(O)CCC(=O)[C@](C)(O)[C@H]1CC[C@@]2(O)C3=CC(=O)[C@@H]4C[C@@H](O)[C@@H](O)C[C@]4(C)[C@H]3CC[C@]12C [Compound 22-dehydro-20-hydroxyecdysone]; ~15 µM
CC(CC(O)C(C)(O)C1CCC2(O)C3=CC(=O)C4CC(O)C(O)CC4(C)C3CCC12C)C(C)(C)O (stereo not shown); ~20 µM
C[C@@H](CO)CC[C@@H](O)[C@](C)(O)[C@H]1CC[C@@]2(O)C3=CC(=O)[C@@H]4C[C@@H](O)[C@@H](O)C[C@]4(C)[C@H]3CC[C@]12C [(25R)-inokosterone]; ~20 µM

// next entry
*Q* Suppose we examine the compound CCC(CC(O)C(C)(O)C1CCC2(O)C3=CC(=O)C4CC(O)C(O)CC4(C)C3CCC12C)C(C)(C)O (stereo not shown) ; what EC50 value has been reported?
*A* ~4 µM

----------
target: Tenebrio molitor EcR (TmEcR-DEF) (Tenebrio molitor, UniProt O02035); experiment: Two-hybrid gene switch assay, TmEcR-DEF in NIH3T3 cells; settings: read-out: EC50 (μM), TM; TmEcR, NIH3T3 cells, luciferase, 48 h, ligand 0.01-33 μM
Sequence (O02035 194-491): as the sequence (O02035 194-491) above
Sequence (P28704 285-520 partner): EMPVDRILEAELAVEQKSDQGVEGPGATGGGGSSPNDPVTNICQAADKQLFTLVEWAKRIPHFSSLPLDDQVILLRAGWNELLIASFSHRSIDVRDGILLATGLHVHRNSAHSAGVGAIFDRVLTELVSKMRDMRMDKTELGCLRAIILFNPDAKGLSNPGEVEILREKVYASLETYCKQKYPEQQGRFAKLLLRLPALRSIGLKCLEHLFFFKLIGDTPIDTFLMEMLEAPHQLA
property.label: EC50

*Q* Dear colleague, I am looking for the recorded EC50 of the following compound: COC1C[C@H]2C(=O)C=C3[C@H](CC[C@]4(C)[C@@H]([C@@](C)(O)C(CCC(C)(C)O)OC)CC[C@@]34OC)[C@@]2(C)CC1OC (stereo partly shown) [20E-2,3,14,22-tetramethyl ether]
*A* > 33 µM

----------
Target: wild-type Aedes aegypti EcR (AaEcR-DEF) (Aedes aegypti, UniProt P49880)
Sequence (P49880 405-776 limits assumed): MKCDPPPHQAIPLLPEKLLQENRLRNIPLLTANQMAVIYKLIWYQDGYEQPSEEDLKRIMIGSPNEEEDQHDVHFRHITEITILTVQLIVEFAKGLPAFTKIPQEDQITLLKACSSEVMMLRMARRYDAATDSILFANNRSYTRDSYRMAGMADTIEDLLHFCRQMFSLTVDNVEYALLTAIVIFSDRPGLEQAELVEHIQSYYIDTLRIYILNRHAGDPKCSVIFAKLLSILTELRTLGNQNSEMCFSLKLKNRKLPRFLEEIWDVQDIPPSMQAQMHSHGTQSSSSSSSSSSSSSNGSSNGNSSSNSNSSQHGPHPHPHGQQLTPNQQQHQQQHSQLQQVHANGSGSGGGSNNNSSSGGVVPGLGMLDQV
Test: Two-hybrid gene switch assay, AaEcR-DEF in NIH3T3 cells
Details: AaEcR gene switch, NIH3T3, Example One
property.label: EC50 (nM)
One number for each entry, in nM.

*Q* Lookup: EC50 / wild-type Aedes aegypti EcR (AaEcR-DEF) (Aedes aegypti, UniProt P49880) / CC(C)CC[C@@H](O)[C@](C)(O)[C@H]1CC[C@@]2(O)C3=CC(=O)[C@]4(O)C[C@@H](O)[C@@H](O)C[C@]4(C)[C@H]3[C@H](O)C[C@]12C [muristerone A]
*A* 9

----------
Record form. Attribute: EC50. Fill in for each entry.
target: UniProt P34021; test: Two-hybrid gene switch assay, luciferase reporter, wild-type DmEcR, mouse NIH3T3 cells; type: cell-based; conditions: EC50, FIG. 4C
Give the value; after it, write the unit.

Here are 2 molecules. What values of EC50 were reported for them?
1. CC(C)CC[C@@H](O)[C@](C)(O)[C@H]1CC[C@@]2(O)C3=CC(=O)[C@@H]4C[C@@H](O)[C@@H](O)C[C@]4(C)[C@H]3CC[C@]12C [PoA, ponasterone A, reference compound]
2. CC(C)CC[C@@H](O)[C@](C)(O)[C@H]1CC[C@@]2(O)C3=CC(=O)[C@]4(O)C[C@@H](O)[C@@H](O)C[C@]4(C)[C@H]3[C@H](O)C[C@]12C [Mur A, muristerone A, reference compound]

*A*
1. 113 nM
2. 112 nM

----------
target: UniProtKB P34021; assay: Two-hybrid gene switch assay, DmEcR-DEF in NIH3T3 cells; settings: DmEcR; max fold induction at any concentration relative to PoA
Please provide measured rel max FI (PoA), DM for the entries that follow.
One number for each entry.

Provide reported rel max FI (PoA), DM for each item, in the same order as listed.
1. CO[C@H]1C[C@@]2(C)[C@@H](C[C@H]1O)C(=O)C=C1[C@@H]2CC[C@]2(C)[C@@H]([C@@](C)(O)[C@H](O)CCC(C)(C)O)CC[C@@]12O [20E-2-methyl ether]
2. CO[C@@H]1C[C@H]2C(=O)C=C3[C@H](CC[C@]4(C)[C@@H]([C@@](C)(O)[C@H](O)CCC(C)(C)O)CC[C@@]34O)[C@@]2(C)C[C@@H]1O [20E-3-methyl ether]
3. CO[C@H](CCC(C)(C)O)[C@](C)(O)C1CC[C@@]2(O)C3=CC(=O)C4C[C@@H](O)[C@@H](O)CC4(C)C3CCC12C (stereo partly drawn) [20E-22-methyl ether]
4. COC1C[C@H]2C(=O)C=C3[C@H](CC[C@]4(C)[C@@H]([C@@](C)(O)C(CCC(C)(C)O)OC)CC[C@@]34OC)[C@@]2(C)CC1OC (stereo partly drawn) [20E-2,3,14,22-tetramethyl ether]
5. CO[C@H]1C[C@@]2(C)[C@@H](C[C@H]1O)C(=O)C=C1[C@@H]2CC[C@]2(C)[C@@H]([C@@](C)(O)[C@@H](CCC(C)(C)O)OC)CC[C@@]12O [20E-2,22-dimethyl ether]
6. CO[C@@H]1C[C@H]2C(=O)C=C3[C@H](CC[C@]4(C)[C@@H]([C@@](C)(O)[C@@H](CCC(C)(C)O)OC)CC[C@@]34O)[C@@]2(C)C[C@@H]1O [20E-3,22-dimethyl ether]

*A*
1. 0.00
2. 0.03
3. 1.07
4. 0.02
5. 0.15
6. 0.09

----------
target: wild-type Choristoneura fumiferana EcR (CfEcR-DEF) (Choristoneura fumiferana, UniProt O77255); test: Two-hybrid gene switch assay, wild-type CfEcR-DEF (GAL4-EcR / VP16-RXR-USP chimera, luciferase) in NIH3T3 cells; conditions: NIH3T3, 48 h, read-out: rel max FI (20E), CF
Sequence (O77255 219-541): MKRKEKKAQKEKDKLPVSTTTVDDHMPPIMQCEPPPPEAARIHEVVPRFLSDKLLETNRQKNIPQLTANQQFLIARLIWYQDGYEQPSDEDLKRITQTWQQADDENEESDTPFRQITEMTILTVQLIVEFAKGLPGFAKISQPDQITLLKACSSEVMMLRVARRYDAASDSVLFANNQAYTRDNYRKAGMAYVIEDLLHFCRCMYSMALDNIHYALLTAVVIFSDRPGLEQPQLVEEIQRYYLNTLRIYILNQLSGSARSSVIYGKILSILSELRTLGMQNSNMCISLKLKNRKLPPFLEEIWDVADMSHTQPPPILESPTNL
Sequence (P28702 299-449 partner): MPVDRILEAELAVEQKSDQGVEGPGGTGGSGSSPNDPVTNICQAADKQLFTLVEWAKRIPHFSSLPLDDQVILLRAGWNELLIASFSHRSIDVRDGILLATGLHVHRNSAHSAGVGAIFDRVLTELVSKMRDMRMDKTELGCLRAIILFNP
Rule: Emax under 50% gives false, otherwise true.

Before answering, review these 4 worked examples.
CO[C@H]1C[C@@]2(C)[C@@H](C[C@H]1O)C(=O)C=C1[C@@H]2CC[C@]2(C)[C@@H]([C@@](C)(O)[C@@H](CCC(C)(C)O)OC)CC[C@@]12O [20E-2,22-dimethyl ether]; true
CO[C@@H]1C[C@H]2C(=O)C=C3[C@H](CC[C@]4(C)[C@@H]([C@@](C)(O)[C@H](O)CCC(C)(C)O)CC[C@@]34O)[C@@]2(C)C[C@@H]1O [20E-3-methyl ether]; true
CO[C@H](CCC(C)(C)O)[C@](C)(O)C1CC[C@@]2(O)C3=CC(=O)C4C[C@@H](O)[C@@H](O)CC4(C)C3CCC12C (some centres unmarked) [20E-22-methyl ether]; false
CO[C@H]1C[C@@]2(C)[C@@H](C[C@H]1O)C(=O)C=C1[C@@H]2CC[C@]2(C)[C@@H]([C@@](C)(O)[C@H](O)CCC(C)(C)O)CC[C@@]12O [20E-2-methyl ether]; false

Pending molecule:
*Q* Determine whether measured Emax meets or exceeds 50% for CO[C@@H]1C[C@H]2C(=O)C=C3[C@H](CC[C@]4(C)[C@@H]([C@@](C)(O)[C@@H](CCC(C)(C)O)OC)CC[C@@]34O)[C@@]2(C)C[C@@H]1O [20E-3,22-dimethyl ether]
*A* false

----------
molecular target: wild-type Aedes aegypti EcR (AaEcR; GAL4-EcR DEF with VP16-RXR-USP chimera) (Aedes aegypti); test: Two-hybrid gene switch assay, luciferase reporter, wild-type AaEcR, mouse NIH3T3 cells; assay type: cell-based; details: EC50, FIG. 16, GAL4-EcR (DEF) / VP16-RXR-USP chimera
property.label: pEC50
Answers are plain numbers, as −log10 of the molar value.

CC(C)(O)CC[C@@H](O)[C@](C)(O)[C@H]1CC[C@@]2(O)C3=CC(=O)[C@]4(O)C[C@@H](O)[C@@H](O)C[C@]4(C)[C@H]3CC[C@]12C; 7.30

Shift focus to the following entry.
*Q* Entry `C[C@H]([C@H](O)CCC(C)(C)O)[C@H]1CC[C@@]2(O)C3=CC(=O)[C@@H]4C[C@@H](O)[C@@H](O)C[C@]4(C)[C@H]3CC[C@]12C` : reported pEC50 = ?
*A* 5.46
